Target: T1, human IL-18 binding protein (IL-18BP) (human, UniProt O95998 31-194)
T1 sequence (looked up): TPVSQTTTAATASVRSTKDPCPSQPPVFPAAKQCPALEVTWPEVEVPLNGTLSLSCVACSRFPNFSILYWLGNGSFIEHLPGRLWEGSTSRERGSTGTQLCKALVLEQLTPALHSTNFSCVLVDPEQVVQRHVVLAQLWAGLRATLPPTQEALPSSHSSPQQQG
Experiment: cell-based or functional assay
REPORTED PROPERTY: Fold Change (BP/NO BP), 50 nM BP

BINDER	RESULT
IL-18 variant G3T, M60K, D157E (ligand) YFTKLESKLSVIRNLNDQVLFIDQGNRPLFEDMTDSDMRDNAPRTIFIISMYKDSQPRGKAVTISVKSEKISTLSSENKIISFKEMNPPDNIKDTKSDIIFFQRSVPGHDNKMQFESSSYEGYFLASEKERDLFKLILKKEDELGDRSIMFTVQNEE	1.05 fold
IL-18 variant G3T, E6K, K53A (ligand, also called G3T, K53A, E6K) YFTKLKSKLSVIRNLNDQVLFIDQGNRPLFEDMTDSDMRDNAPRTIFIISMYADSQPRGMAVTISVKSEKISTLSSENKIISFKEMNPPDNIKDTKSDIIFFQRSVPGHDNKMQFESSSYEGYFLASEKERDLFKLILKKEDELGDRSIMFTVQNED	2.79 fold
